Test system: CD2F1 mice, L1210 leukemia ip, survival T/C
assay-procedure: NCI In Vivo Anticancer Drug Screen. Data for tumor model L1210 Leukemia (intraperitoneal) in CD2F1 (CDF1) mice
conditions-used: endpoint: mean survival time; dose: 100.0 mg/kg/injection; schedule: Q04DX003 (ip); vehicle: saline
Inconclusive results and toxic doses are left out. How the source made its calls: active means survival T/C of 150% or more; inactive means T/C below 125% in these data.
Hi there, use one of these labels in your reply, thanks! active, inactive

Answered examples (10):
Exercise: Recorded call for `Nc1ccc2ccc(O)cc2c1` ?
Key: inactive

Exercise: Now the compound `CNC(=O)OCCN(C)OC`
Key: inactive

Exercise: Now the compound CC(=O)C(C)N(C)C (configuration not stated)
Key: inactive

Exercise: Now the compound `O=S(=O)(Cl)c1cccc2cc3ccccc3cc12`
Key: inactive

Exercise: Now the compound `Cc1cccc(Br)[n+]1[O-]`
Key: inactive

Exercise: Now the compound OC1CCCC(O)C1O (configuration not stated)
Key: inactive

Exercise: Now the compound `CC(C)(CCC(=O)O)C(=O)O`
Key: inactive

Exercise: Now the compound `CC(C)C(=O)OCCOC(=O)C(C)C`
Key: inactive

Exercise: Now the compound `CC(C)(CO)NC(=O)CCO`
Key: inactive

Exercise: Now the compound `NC(=O)C(Cl)(Cl)Cl`
Key: inactive

***
Exercise: Recorded call for Oc1cc(O)c2c(c1)OC(c1ccc(O)c(O)c1)C(O)C2c1c(O)cc(O)c2c1OC(c1ccc(O)c(O)c1)C(O)C2 (configuration not stated) ?
Key: inactive

Exercise: Now the compound `O=C1O/C(=C\c2ccccc2)c2ccccc21`
Key: inactive

Exercise: Now the compound `CCOCCc1ccncc1`
Key: inactive

Exercise: Now the compound CC(=O)OC1CCCC(OC(C)=O)C1OC(C)=O (configuration not stated)
Key: inactive

Exercise: Now the compound CC[N+]1(C2CCC3CCC2C3O)CCOCC1 (configuration not stated)
Key: inactive

Exercise: Now the compound `C[n+]1ccc(Nc2ccc(NC(=O)c3ccc(Nc4cc[n+](C)c5ccc([N+](=O)[O-])cc45)cc3)cc2)cc1`
Key: active

----------
Tested on: CD2F1 mice, L1210 leukemia ip, survival T/C
assay-procedure: NCI In Vivo Anticancer Drug Screen. Data for tumor model L1210 Leukemia (intraperitoneal) in CD2F1 (CDF1) mice
conditions-used: endpoint: mean survival time; dose: 400.0 mg/kg/injection; schedule: Q04DX002 (ip); vehicle: saline with Tween-80; higher = longer survival
Inconclusive results and toxic doses are left out.
Exercise: state measured T/C for each of the molecules provided.

// below: answered molecules
Exercise: Item `COc1ccccc1NC(=O)Oc1ccc(Cl)c(C)c1` has what recorded T/C?
Key: 96 % of control

Exercise: Now the molecule O=C(O)C1C2CCC(CC2)C1C(=O)O (stereo not drawn)
Key: 101 % of control

Exercise: Now the molecule CC(C)CN1C(=O)C2C3CCC(O3)C2C1=O (stereo not drawn)
Key: 102 % of control

Please state T/C for every molecule in the list that follows.
1. CC(C)OC(=O)Nc1ccccn1
2. O=C(N/C=C\NC(=O)Nc1cccc(Cl)c1)Nc1cccc(Cl)c1
3. O=[N+]([O-])Nc1ccc(C(c2ccc(N[N+](=O)[O-])cc2)c2ccc([N+](=O)[O-])cc2)cc1
4. COC(=O)C1(C)CCC(=O)O1 (stereo not drawn)
5. CCOc1ccc(OCC)c(NC(=O)Nc2ccc(OC)cc2)c1
6. COC(=O)/C=C/c1ccc(O)cc1

Key:
1: 104 % of control; 2: 98 % of control; 3: 88 % of control; 4: 102 % of control; 5: 86 % of control; 6: 96 % of control
